Molecular target: UniProt P0ADG7
Sequence (P0ADG7 whole entry): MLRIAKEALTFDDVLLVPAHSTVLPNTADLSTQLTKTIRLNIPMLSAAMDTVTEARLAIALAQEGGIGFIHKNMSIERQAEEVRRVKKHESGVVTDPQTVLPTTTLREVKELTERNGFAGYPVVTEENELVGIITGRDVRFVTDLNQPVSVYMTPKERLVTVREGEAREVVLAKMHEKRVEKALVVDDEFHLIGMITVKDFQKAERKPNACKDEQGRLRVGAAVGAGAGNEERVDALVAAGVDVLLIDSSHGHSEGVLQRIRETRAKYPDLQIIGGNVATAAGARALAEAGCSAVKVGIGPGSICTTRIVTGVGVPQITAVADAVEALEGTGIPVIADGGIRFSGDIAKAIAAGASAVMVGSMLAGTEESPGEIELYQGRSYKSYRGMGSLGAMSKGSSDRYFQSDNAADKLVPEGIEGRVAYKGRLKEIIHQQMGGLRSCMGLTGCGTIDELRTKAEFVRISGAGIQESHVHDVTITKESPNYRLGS
Label true when Ki is strictly below 80 µM; at or above that, label false.

{"Molecule": "Nc1ncnc2c1nc(Sc1ccccc1)n2C1O[C@H](COP(=O)(O)O)[C@@H](O)[C@H]1O (stereo not given in full)", "Assigned category": "false"}
{"Molecule": "CCCCCSc1nc2c(N)ncnc2n1C1O[C@H](COP(=O)(O)O)[C@@H](O)[C@H]1O (stereo not given in full)", "Assigned category": "false"}
{"Molecule": "COc1ccc(CSc2nc3c(N)ncnc3n2C2O[C@H](COP(=O)(O)O)[C@@H](O)[C@H]2O)cc1 (stereo not given in full)", "Assigned category": "false"}
{"Molecule": "Nc1ncnc2c1nc(SCc1ccc(C(=O)O)cc1)n2C1O[C@H](COP(=O)(O)O)[C@@H](O)[C@H]1O (stereo not given in full)", "Assigned category": "false"}

Prompt: Strictly below 80 µM: is that where Ki of O=[N+]([O-])c1ccc(CCSc2nc3c(O)ncnc3n2C2O[C@H](COP(=O)(O)O)[C@@H](O)[C@H]2O)cc1 (stereo not given in full) sits?
Response: true

Prompt: Strictly below 80 µM: is that where Ki of Nc1ncnc2c1ncn2[C@@H]1O[C@H](COP(=O)(O)O)[C@@H](O)[C@H]1O [ADENOSINE PHOSPHATE] sits?
Response: false

Prompt: Strictly below 80 µM: is that where Ki of N#Cc1ccc(CSc2nc3c(O)ncnc3n2C2O[C@H](COP(=O)(O)O)[C@@H](O)[C@H]2O)cc1 (stereo not given in full) sits?
Response: true

Prompt: Strictly below 80 µM: is that where Ki of Nc1ncnc2c1nc(NCc1ccccc1)n2C1O[C@H](COP(=O)(O)O)[C@@H](O)[C@H]1O (stereo not given in full) sits?
Response: false

Prompt: Strictly below 80 µM: is that where Ki of Nc1ncnc2c1nc(SCc1cc([N+](=O)[O-])cc([N+](=O)[O-])c1)n2C1O[C@H](COP(=O)(O)O)[C@@H](O)[C@H]1O (stereo not given in full) sits?
Response: true

Prompt: Strictly below 80 µM: is that where Ki of O=c1[nH]cnc2c1nc(Sc1cccc(C(F)(F)F)c1)n2C1O[C@H](COP(=O)(O)O)[C@@H](O)[C@H]1O (stereo not given in full) sits?
Response: false

Prompt: Strictly below 80 µM: is that where Ki of CC(C)(C)c1ccc(CSc2nc3c(=O)[nH]cnc3n2C2O[C@H](COP(=O)(O)O)[C@@H](O)[C@H]2O)cc1 (stereo not given in full) sits?
Response: false

Prompt: Strictly below 80 µM: is that where Ki of N#Cc1ccc(CSc2nc3c(N)ncnc3n2C2O[C@H](COP(=O)(O)O)[C@@H](O)[C@H]2O)cc1 (stereo not given in full) sits?
Response: true

Prompt: Strictly below 80 µM: is that where Ki of Nc1ncnc2c1nc(SCCc1ccc([N+](=O)[O-])cc1)n2C1O[C@H](COP(=O)(O)O)[C@@H](O)[C@H]1O (stereo not given in full) sits?
Response: true

Prompt: Strictly below 80 µM: is that where Ki of O=P(O)(O)OC[C@H]1OC(n2c(Sc3ccccc3)nc3c(O)ncnc32)[C@H](O)[C@@H]1O (stereo not given in full) sits?
Response: true

Prompt: Strictly below 80 µM: is that where Ki of O=c1[nH]cnc2c1nc(Br)n2C1O[C@H](COP(=O)(O)O)[C@@H](O)[C@H]1O (stereo not given in full) sits?
Response: false

Prompt: Strictly below 80 µM: is that where Ki of Nc1ncnc2c1nc(Br)n2[C@@H]1O[C@H](COP(=O)(O)O)[C@@H](O)[C@H]1O sits?
Response: false

Prompt: Strictly below 80 µM: is that where Ki of Nc1ncnc2c1nc(SCCCc1ccccc1)n2C1O[C@H](COP(=O)(O)O)[C@@H](O)[C@H]1O (stereo not given in full) sits?
Response: true

Prompt: Strictly below 80 µM: is that where Ki of Nc1ncnc2c1nc(SCc1ccc([N+](=O)[O-])cc1)n2C1O[C@H](COP(=O)(O)O)[C@@H](O)[C@H]1O (stereo not given in full) sits?
Response: true

Prompt: Strictly below 80 µM: is that where Ki of Nc1ncnc2c1nc(SCc1ccc(F)cc1)n2C1O[C@H](COP(=O)(O)O)[C@@H](O)[C@H]1O (stereo not given in full) sits?
Response: true

Prompt: Strictly below 80 µM: is that where Ki of CC(C)(C)c1ccc(CSc2nc3c(N)ncnc3n2C2O[C@H](COP(=O)(O)O)[C@@H](O)[C@H]2O)cc1 (stereo not given in full) sits?
Response: false
